Numbers sourced from patent US20250026752A1.

- TGT: human mAChR M4 (Homo sapiens)
- Construct: expressed in transfected cells; host or cells: CHO-K1 (ATCC), stably expressing hM4 and Gqi5
- METHOD_SUMMARY: mAChR M4 cell-based functional assay: calcium flux (Fluo-4, FDSS), positive allosteric modulator activity on the EC20 acetylcholine response, hM4-Gqi5 CHO-K1 cells
- PROTOCOL_CONDITIONS: human M4; PAM activity on EC20 acetylcholine response, calcium flux; read-out: Human M4 EC50
Please respond with reported EC50 for every item in the list.
Return type: number; implicit unit nM.

Query (compound): `Cc1nc(N2CCc3ncc(C(F)(F)F)cc3C2)c2ccc(F)cc2n1` ; field requested: EC50 430

Query (compound): `Cc1nn(C)cc1-c1cnc2c(c1)CN(c1ncnc3ccc(F)cc13)CC2` ; field requested: EC50 100

Query (compound): `Cc1ccc(F)cc1-c1cnc2c(c1)CN(c1ncnc3ccc(Cl)cc13)CC2` ; field requested: EC50 3060

Query (compound): `Cc1ccc2nc(C)nc(N3CCc4ncc(-c5ccccc5C)cc4C3)c2c1` ; field requested: EC50 1600

Query (compound): `Cc1ccc2ncnc(N3CCc4ncc(N5CCCn6nccc65)cc4C3)c2c1` ; field requested: EC50 30

Query (compound): `Cc1nc(N2CCc3ncc(-c4cnc(C)s4)cc3C2)c2cc(F)ccc2n1` ; field requested: EC50 170

Query (compound): `Fc1cc2ncnc(N3CCc4ncc(-c5cnn(C6CC6)c5)cc4C3)c2cc1F` ; field requested: EC50 200

Query (compound): `Cn1nc(C(F)(F)F)cc1-c1cnc2c(c1)CN(c1ncnc3cc(F)c(F)cc13)CC2` ; field requested: EC50 950

====

- TGT: human mAChR M4 (Homo sapiens, UniProt P08173)
- Construct: expressed in transfected cells; host or cells: CHO-K1 (ATCC), stably expressing hM4 and Gqi5
- Sequence (P08173 1-479): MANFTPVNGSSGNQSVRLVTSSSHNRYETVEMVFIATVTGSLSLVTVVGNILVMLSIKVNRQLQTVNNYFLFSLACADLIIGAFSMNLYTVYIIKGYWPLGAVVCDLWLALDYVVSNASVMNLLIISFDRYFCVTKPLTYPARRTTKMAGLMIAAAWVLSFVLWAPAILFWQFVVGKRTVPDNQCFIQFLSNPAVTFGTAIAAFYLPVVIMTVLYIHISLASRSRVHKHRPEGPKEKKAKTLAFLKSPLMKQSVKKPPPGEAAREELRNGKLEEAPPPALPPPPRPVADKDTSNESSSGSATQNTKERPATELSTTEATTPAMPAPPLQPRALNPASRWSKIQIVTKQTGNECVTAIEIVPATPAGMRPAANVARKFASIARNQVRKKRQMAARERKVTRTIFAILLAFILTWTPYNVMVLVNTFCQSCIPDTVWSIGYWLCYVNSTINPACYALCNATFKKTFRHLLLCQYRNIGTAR
- METHOD_SUMMARY: mAChR M4 cell-based functional assay: calcium flux (Fluo-4, FDSS), positive allosteric modulator activity on the EC20 acetylcholine response, hM4-Gqi5 CHO-K1 cells
- PROTOCOL_CONDITIONS: human M4; PAM activity on EC20 acetylcholine response, calcium flux; read-out: Human M4 EC50
Please respond with reported EC50 for every item in the list.
Lab note: write values as number then unit, every time.

Query (compound): `C[C@H]1CCN(c2cnc3c(c2)CN(c2ncnc4ccc(F)cc24)CC3)c2ccnn21` ; field requested: EC50 490 nM

Query (compound): `Fc1cccc(Cc2cnc3c(c2)CN(c2ncnc4ccc(F)cc24)CC3)c1` ; field requested: EC50 590 nM

Query (compound): `Cc1nc(N2CCc3ncc(-c4cnn(C5CC5)c4)cc3C2)c2cc(Cl)ccc2n1` ; field requested: EC50 390 nM

Query (compound): `Fc1cc2c(N3CCc4ncc(N5CCCn6nccc65)cc4C3)nc(Cl)nc2cc1Cl` ; field requested: EC50 460 nM

Query (compound): `Cc1cnn(C)c1-c1cnc2c(c1)CN(c1ncnc3ccc(F)cc13)CC2` ; field requested: EC50 60 nM

Query (compound): `Cn1nccc1-c1cnc2c(c1)CN(c1ncnc3ccc(F)cc13)CC2` ; field requested: EC50 40 nM

Query (compound): `Cc1nc(N2CCc3ncc(Nc4ccnn4C)cc3C2)c2cc(Cl)ccc2n1` ; field requested: EC50 170 nM

Query (compound): CC1CN(c2cnc3c(c2)CN(c2ncnc4ccc(F)cc24)CC3)c2ccnn2C1 (centres unmarked) ; field requested: EC50 70 nM

Query (compound): `COc1cc2c(N3CCc4ncc(C(F)(F)F)cc4C3)nc(Cl)nc2cc1F` ; field requested: EC50 350 nM

Query (compound): `CC(C)n1nccc1-c1cnc2c(c1)CN(c1ncnc3ccc(F)cc13)CC2` ; field requested: EC50 140 nM

Query (compound): `Cc1nc(N2CCc3ncc(N4CCCn5nccc54)cc3C2)c2cc(C(F)(F)F)ccc2n1` ; field requested: EC50 480 nM

Query (compound): `Cc1ccc(F)cc1-c1cnc2c(c1)CN(c1ncnc3ccc(F)cc13)CC2` ; field requested: EC50 740 nM

Query (compound): `Cc1ccc2nc(N3CCOCC3)nc(N3CCc4ncc(C(F)(F)F)cc4C3)c2c1` ; field requested: EC50 670 nM

Query (compound): `Cc1nn(C)cc1-c1cnc2c(c1)CN(c1nc(C3CC3)nc3ccc(F)cc13)CC2` ; field requested: EC50 950 nM

Query (compound): `COc1ccc2nc(C)nc(N3CCc4ncc(-c5ccccc5C)cc4C3)c2c1` ; field requested: EC50 4670 nM

Query (compound): `Cc1nc(N2CCc3ncc(-c4ccccc4C)cc3C2)c2cc(F)ccc2n1` ; field requested: EC50 1630 nM

Query (compound): `COc1ccc2nc(O)nc(N3CCc4ncc(C(F)(F)F)cc4C3)c2c1` ; field requested: EC50 1490 nM

====

- TGT: human mAChR M4 (Homo sapiens, UniProt P08173)
- Construct: expressed in transfected cells; host or cells: CHO-K1 (ATCC), stably expressing hM4 and Gqi5
- Sequence (P08173 1-479): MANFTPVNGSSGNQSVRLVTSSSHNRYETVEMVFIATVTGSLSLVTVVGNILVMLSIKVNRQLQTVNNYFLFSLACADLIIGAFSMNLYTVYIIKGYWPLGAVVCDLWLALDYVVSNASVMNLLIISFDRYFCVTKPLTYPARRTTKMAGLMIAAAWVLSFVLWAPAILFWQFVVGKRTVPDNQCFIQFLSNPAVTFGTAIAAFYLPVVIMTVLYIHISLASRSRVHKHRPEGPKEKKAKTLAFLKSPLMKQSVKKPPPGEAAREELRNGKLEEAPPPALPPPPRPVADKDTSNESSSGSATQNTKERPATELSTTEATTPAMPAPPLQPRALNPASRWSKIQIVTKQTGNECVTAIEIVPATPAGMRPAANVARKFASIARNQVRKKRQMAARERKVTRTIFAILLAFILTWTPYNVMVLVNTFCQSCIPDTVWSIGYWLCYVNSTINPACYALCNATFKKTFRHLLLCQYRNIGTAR
- METHOD_SUMMARY: mAChR M4 cell-based functional assay: calcium flux (Fluo-4, FDSS), positive allosteric modulator activity on the EC20 acetylcholine response, hM4-Gqi5 CHO-K1 cells
- PROTOCOL_CONDITIONS: CHO-K1, human M4; % ACh maximum at 30 μM
- Protocol: […] Calcium flux was measured using the Functional Drug Screening System (FDSS) 6000 or 7000 (Hamamatsu Corporation, Tokyo, Japan) as an increase in the fluorescent static ratio. […] Agonist activity was analyzed as a concentration-dependent increase in calcium mobilization upon compound addition. Positive allosteric modulator activity was analyzed as a concentration-dependent increase in the EC20 acetylcholine response. […]
ENDPOINT: Emax at 30 µM (%)
Return type: number; implicit unit %.

Query (compound): `Cc1nc(N2CCc3ncc(Oc4ccccc4F)cc3C2)c2cc(F)ccc2n1` ; field requested: Emax at 30 µM 87

Query (compound): Cc1nc(N2Cc3cc(C(F)(F)F)cnc3C(C)C2)c2cc(F)ccc2n1 (centres unmarked) ; field requested: Emax at 30 µM 95

Query (compound): `Cc1nc(N2CCc3ncc(C(F)(F)F)cc3C2)c2cc(Cl)ccc2n1` ; field requested: Emax at 30 µM 75

Query (compound): `C[C@H]1CCN(c2cnc3c(c2)CN(c2ncnc4ccc(F)cc24)CC3)c2ccnn21` ; field requested: Emax at 30 µM 72

Query (compound): Fc1ccc2nc(NC3CCOC3)nc(N3CCc4ncc(C(F)(F)F)cc4C3)c2c1 (centres unmarked) ; field requested: Emax at 30 µM 92

Query (compound): `Cn1cc(-c2cnc3c(c2)CN(c2nc(Cl)nc4cc(Cl)c(F)cc24)CC3)cn1` ; field requested: Emax at 30 µM 34

Query (compound): `Cc1ccc(-c2cnc3c(c2)CN(c2ncnc4cc(F)c(F)cc24)CC3)cn1` ; field requested: Emax at 30 µM 84

Query (compound): `Fc1ccc2ncnc(N3CCc4ncc(N5CCO[C@@H](c6ccccc6)C5)cc4C3)c2c1` ; field requested: Emax at 30 µM 59
